Attribute: activity at 1 µM
Target: glucokinase (GK) enzyme (Homo sapiens)
Sequence (P35557 whole entry, species assumed): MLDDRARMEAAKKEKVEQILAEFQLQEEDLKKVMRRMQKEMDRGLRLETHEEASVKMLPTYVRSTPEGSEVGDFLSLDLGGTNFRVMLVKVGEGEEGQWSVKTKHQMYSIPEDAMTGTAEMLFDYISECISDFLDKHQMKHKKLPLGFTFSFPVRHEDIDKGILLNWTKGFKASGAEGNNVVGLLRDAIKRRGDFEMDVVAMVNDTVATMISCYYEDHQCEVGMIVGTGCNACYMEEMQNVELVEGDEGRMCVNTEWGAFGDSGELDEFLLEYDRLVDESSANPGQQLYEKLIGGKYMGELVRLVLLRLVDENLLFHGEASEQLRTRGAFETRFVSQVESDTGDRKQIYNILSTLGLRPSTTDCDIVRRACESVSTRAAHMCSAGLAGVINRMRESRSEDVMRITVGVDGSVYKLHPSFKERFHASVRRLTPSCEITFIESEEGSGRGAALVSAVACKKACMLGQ
Experiment: In-vitro glucokinase (GK) activation assay (coupled with glucose-6-phosphate dehydrogenase, absorbance at 340)
Type: biochemical
Details: 1 uM compound; glucose 2.5 mM; read-out: % of GK activity wrt DMSO
Report only the number, with the unit % understood.

Completed entries (count: 4):
>>> print(df.to_string())
                                   compound  unit_descriptor  quantitative_result
0  Cc1nnc(-c2ccc(Oc3cc(OC4CCN(C)C4=O)cc(C(=O)Nc4nc5ccccc5s4)c3)cc2)o1 (centres unmarked) [Example 14]                %                  298
1  Cc1nnc(-c2ccc(Oc3cc(OC4CCN(C)C4=O)cc(C(=O)n4c(N)nc5ccccc54)c3)cc2)o1 (centres unmarked) [Example 11]                %                  109
2  Cc1nnc(-c2ccc(Oc3cc(OC4CCN(C)C4=O)cc(C(=O)Nc4nc(-c5ccccc5)cs4)c3)cc2)o1 (centres unmarked) [Example 37]                %                  151
3  Cc1nnc(-c2ccc(Oc3cc(OC4CCN(C5CC5)C4=O)cc(C(=O)Nc4nccs4)c3)cc2)o1 (centres unmarked) [Example 21]                %                  213

Problem: Field: activity at 1 µM (glucokinase (GK) enzyme (Homo sapiens)). Entry: Cc1nnc(-c2ccc(Oc3cc(OC4CCN(C5CC5)C4=O)cc(C(=O)Nc4ncc(C)s4)c3)cc2)o1 (centres unmarked) [Example 20]
Result: 188

Problem: Field: activity at 1 µM (glucokinase (GK) enzyme (Homo sapiens)). Entry: CN1CCC(Oc2cc(Oc3ccc(-c4nnc(-c5ccccc5)o4)cc3)cc(C(=O)Nc3nccs3)c2)C1=O (centres unmarked) [Example 34]
Result: 350

Problem: Field: activity at 1 µM (glucokinase (GK) enzyme (Homo sapiens)). Entry: Cc1csc(NC(=O)c2cc(Oc3ccc(-c4nnc(C)o4)cc3)cc(OC3CCN(C4CC4)C3=O)c2)n1 (centres unmarked) [Example 19]
Result: 208

Problem: Field: activity at 1 µM (glucokinase (GK) enzyme (Homo sapiens)). Entry: CC(C)Cc1nnc(-c2ccc(Oc3cc(OC4CCN(C)C4=O)cc(C(=O)Nc4nccs4)c3)cc2)o1 (centres unmarked) [Example 28]
Result: 248

Problem: Field: activity at 1 µM (glucokinase (GK) enzyme (Homo sapiens)). Entry: CCc1nnc(-c2ccc(Oc3cc(OC4CCN(C)C4=O)cc(C(=O)Nc4nc(C)cs4)c3)cc2)o1 (centres unmarked) [Example 27]
Result: 262

Problem: Field: activity at 1 µM (glucokinase (GK) enzyme (Homo sapiens)). Entry: Cc1nnc(-c2ccc(Oc3cc(OC4CCN(C)C4=O)cc(C(=O)Nc4nc(CC(=O)O)cs4)c3)cc2)o1 (centres unmarked) [Example 4]
Result: 273

Problem: Field: activity at 1 µM (glucokinase (GK) enzyme (Homo sapiens)). Entry: CCOC(=O)c1cnc(NC(=O)c2cc(Oc3ccc(-c4nnc(C)o4)cc3)cc(OC3CCN(C)C3=O)c2)s1 (centres unmarked) [Example 25]
Result: 149
